Tested on: 377384-186-R-J1-PDC complex spheroid viability;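 also: luminescence signal used as a stand-in for viable cells; spheroids exposed to agents for 7 days before reading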
Test name: Anticancer human tumor 377384-186-R-J1-PDC patient-derived pancreatic carcinoma cell line growth inhibition [CLK]
Condition info: second compound 0.1 µM; first compound 0.1 µM; active compounds read low

Compound: CCc1c2c(nc3ccc(O)cc13)-c1cc3c(c(=O)n1C2)COC(=O)[C@]3(O)CC + CN1CCN(c2cc(C(=O)Nc3cc4cc(-c5cnn(C)c5)ccc4cn3)ccn2)CC1
viability, T/C, %: 3.62

Compound: COc1ccc([C@@H](O)c2cc(-c3ncnc4cc(N5CCOCC5)ccc34)c(F)cc2Cl)nn1 + CN1CCN(c2cc(C(=O)Nc3cc4cc(-c5cnn(C)c5)ccc4cn3)ccn2)CC1
viability, T/C, %: 99.9

Compound: O=C(c1cc(Cc2n[nH]c(=O)c3ccccc23)ccc1F)N1CCN(C(=O)C2CC2)CC1 + CNC(=O)c1ccc(Nc2nc(OC3CCCC3)c3c(-c4ccc5nc(C)oc5c4)c[nH]c3n2)c(OC)c1
viability, T/C, %: 50.2

Compound: COc1c(OCCCN2CCOCC2)ccc2c3n(c(=NC(=O)c4cnc(N)nc4)nc12)CCN3 + CNC(=O)c1ccc(Nc2nc(OC3CCCC3)c3c(-c4ccc5nc(C)oc5c4)c[nH]c3n2)c(OC)c1
viability, T/C, %: 27.5

Compound: Cn1ncnc1[C@H]1c2n[nH]c(=O)c3cc(F)cc(c23)N[C@@H]1c1ccc(F)cc1 + CN1CCN(c2cc(C(=O)Nc3cc4cc(-c5cnn(C)c5)ccc4cn3)ccn2)CC1
viability, T/C, %: 46

From: PubChem BioAssay AID2060616
